tgt: MutL H319A (Escherichia coli, UniProt P23367 1-615, H319A)
experiment.notes: fluorescence anisotropy; AMPPNP (1 mM, Fig 3C); FA: 20 mM HEPES pH 7.5, 150 mM NaCl, 5 mM MgCl2, 0.08% Tween 20, 20% glycerol, 2 mM DTT, 5 nM DNA, 25 C; BLI: 25 mM HEPES pH 7.5, 150 mM NaCl, 5 mM MgCl2, 2 mM
setup.conditions: protein: recombinant; (HisTrap purified); chain copies: 2; label: 5'-FAM on primer S8; 15 bp duplex, 5' overhang 16 nt on template (recessed primer 3' end)
measured.endpoint: pKd
Give bare numbers, as −log10 of the molar value.

Request: Let me know recorded pKd for 3' resected primer/template junction (dsDNA) DNA 1: AAGTGTCTGTCGTTTTAAGGACGAAGGACTC DNA 2: GAGTCCTTCGTCCTT , thanks.
Response: 5.35
